Tested System: VEGFR2 (Homo sapiens)
Construct: GST-VEGFR2 (residues V789-V1356); GST (N); made in house; host or cells: Sf9 insect cells
Sequence (P35968 789-1356): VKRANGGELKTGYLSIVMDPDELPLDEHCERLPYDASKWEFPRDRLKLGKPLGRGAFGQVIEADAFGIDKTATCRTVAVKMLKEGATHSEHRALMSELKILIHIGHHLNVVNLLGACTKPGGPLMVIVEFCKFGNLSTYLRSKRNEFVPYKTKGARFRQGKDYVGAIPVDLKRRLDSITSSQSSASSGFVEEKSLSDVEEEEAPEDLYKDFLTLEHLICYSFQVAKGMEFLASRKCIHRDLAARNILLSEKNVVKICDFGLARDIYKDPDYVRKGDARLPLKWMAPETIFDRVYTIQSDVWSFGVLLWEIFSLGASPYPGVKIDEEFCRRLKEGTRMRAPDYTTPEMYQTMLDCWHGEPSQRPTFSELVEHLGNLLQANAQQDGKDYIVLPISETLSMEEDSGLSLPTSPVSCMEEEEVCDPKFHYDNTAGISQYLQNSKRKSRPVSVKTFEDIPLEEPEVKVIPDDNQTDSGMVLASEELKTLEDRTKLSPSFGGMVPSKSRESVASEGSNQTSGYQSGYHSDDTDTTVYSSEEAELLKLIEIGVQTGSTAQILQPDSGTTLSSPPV
Assay Method Text: VEGFR2 Kinase-Glo kinase assay
Type: biochemical
Applied Conditions: VEGFR2 assay, 1 μM ATP, ranges in nM; read-out: IC50
// IC50 lookup, one value per entry

Completed entries (count: 6):
Compound: Cc1nc(Nc2cc(-c3ccc(CNC(=O)OCc4ccccc4)cc3)n[nH]2)cc(N2CCN(CCO)CC2)n1
IC50: 55 to 400 nM
//
Compound: O=C(NCc1ccc(-c2cc(NC(=O)c3ccc(OCCN4CCOCC4)cc3)[nH]n2)cc1)Nc1ccccc1 [Compound 61a]
IC50: 1 to 55 nM
//
Compound: CC(C)(C)c1cc(NC(=O)NCc2ccc(-c3cc(NC(=O)c4ccc(OCCN5CCOCC5)cc4)[nH]n3)cc2)no1
IC50: 1 to 55 nM
//
Compound: CN1CCN(c2ccc(C(=O)Nc3cc(-c4ccc(NC(=O)Nc5cc(C(C)(C)C)on5)cc4)n[nH]3)cc2)CC1
IC50: 1 to 55 nM
//
Compound: Cc1cc(NC(=O)Nc2ccc(-c3cc(NC(=O)c4ccc(N5CCN(C)CC5)cc4)[nH]n3)cc2)no1
IC50: 1 to 55 nM
//
Compound: Cc1cc(NC(=O)NCc2ccc(-c3cc(NC(=O)c4ccc(OCCN5CCCC5)cc4)[nH]n3)cc2)no1
IC50: 1 to 55 nM

What value of IC50 has been recorded for this entry: `Cc1nc(Nc2cc(-c3ccc(CNC(=O)OCc4ccccc4)cc3)n[nH]2)cc(N2CCN(C)CC2)n1`
55 to 400 nM

What value of IC50 has been recorded for this entry: Cc1cc(-c2cc(NC(=O)c3ccc(OCCN4CCOCC4)cc3)[nH]n2)ccc1NC(=O)Nc1cc(C2CC2)on1 [Compound 46c]
1 to 55 nM

What value of IC50 has been recorded for this entry: `CC(C)(C)c1cc(NC(=O)Nc2ccc(-c3cc(NC(=O)c4ccc(OCCN5CCOCC5)cc4)[nH]n3)cc2)no1`
1 to 55 nM

What value of IC50 has been recorded for this entry: `O=C(Nc1cc(-c2cccc(NS(=O)(=O)c3ccccc3)c2)n[nH]1)c1ccc(OCCN2CCCC2)cc1`
55 to 400 nM

What value of IC50 has been recorded for this entry: CCc1cc(NC(=O)Nc2ccc(-c3cnc(Nc4cc(N5CCC(N)C5)nc(C)n4)s3)cc2)no1 (centres unmarked)
1 to 55 nM

What value of IC50 has been recorded for this entry: `CN1CCN(c2ccc(C(=O)Nc3cc(-c4ccc(CNC(=O)OCc5ccccc5)cc4)n[nH]3)cc2)CC1`
55 to 400 nM

What value of IC50 has been recorded for this entry: CN1CCN(Cc2ccc(C(=O)Nc3cc(-c4ccc(CNC(=O)Nc5cc(C6CC6)on5)cc4)n[nH]3)cc2)CC1 [Compound 62d]
1 to 55 nM

What value of IC50 has been recorded for this entry: `Cc1cc(NC(=O)Nc2ccc(-c3cc(NC(=O)c4ccc(N5CCN(C)CC5)cc4)[nH]n3)cc2C)no1`
1 to 55 nM

What value of IC50 has been recorded for this entry: CCc1cc(NC(=O)NCc2ccc(-c3cc(NC(=O)c4ccc(CN5CCN(C)CC5)cc4)[nH]n3)cc2)no1 [Compound 62b]
1 to 55 nM

What value of IC50 has been recorded for this entry: `CN1CCN(Cc2ccc(C(=O)Nc3cc(-c4ccc(NC(=O)Nc5cc(C(C)(C)C)on5)cc4)n[nH]3)cc2)CC1`
1 to 55 nM

What value of IC50 has been recorded for this entry: `CN1CCN(c2ccc(C(=O)Nc3cc(-c4ccc(NC(=O)Nc5ccccc5)cc4)n[nH]3)cc2)CC1`
1 to 55 nM

What value of IC50 has been recorded for this entry: `Cc1cc(-c2cc(NC(=O)c3ccc(N4CCN(C)CC4)cc3)[nH]n2)ccc1N`
55 to 400 nM

What value of IC50 has been recorded for this entry: `Cc1cc(COC(=O)NCc2ccc(-c3cc(NC(=O)c4ccc(N5CCN(C)CC5)cc4)[nH]n3)cc2)no1`
55 to 400 nM

What value of IC50 has been recorded for this entry: O=C(NCc1ccc(-c2cc(NC(=O)c3ccc(OCCN4CCOCC4)cc3)[nH]n2)cc1)Nc1cc(C2CC2)on1 [Compound 59d]
1 to 55 nM
